Values were extracted from ChEMBL document CHEMBL3352477.

Give pIC50 for every item shown.
- study_target: Mitogen-activated protein kinase 10 (Homo sapiens)
- Sequence (P53779 whole entry): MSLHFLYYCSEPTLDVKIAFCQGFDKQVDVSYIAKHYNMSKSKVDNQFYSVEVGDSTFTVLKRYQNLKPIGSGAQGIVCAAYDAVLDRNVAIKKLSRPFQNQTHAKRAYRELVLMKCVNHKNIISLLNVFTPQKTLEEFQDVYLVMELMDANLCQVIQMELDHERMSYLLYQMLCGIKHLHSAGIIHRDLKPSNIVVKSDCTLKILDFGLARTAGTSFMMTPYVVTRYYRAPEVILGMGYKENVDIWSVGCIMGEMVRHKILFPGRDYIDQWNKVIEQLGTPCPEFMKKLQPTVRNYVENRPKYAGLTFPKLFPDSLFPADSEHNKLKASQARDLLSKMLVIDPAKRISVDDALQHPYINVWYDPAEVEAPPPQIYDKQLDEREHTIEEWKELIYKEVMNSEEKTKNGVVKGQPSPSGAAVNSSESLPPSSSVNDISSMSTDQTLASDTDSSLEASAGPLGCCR
- assay_procedure: Inhibition of human wild type JNK3 using biotinylated ATF2 substrate assessed as phosphorylation at thr53 on ATF2 by fluorescent plate reader
# pIC50: negative log10 of molar concentration; output just the value

Provide the documented pIC50 with Mitogen-activated protein kinase 10 (Homo sapiens) as the system for Cc1cc(Nc2nc3ccccc3o2)c2ccccc2c1Oc1ncccc1-c1ccnc(N[C@H]2CC[C@H](N)CC2)n1
8.15

State its pIC50 on Mitogen-activated protein kinase 10 (Homo sapiens): c1cnc(Oc2ccc(Nc3nc4ccccc4[nH]3)c3ccccc23)c(-c2ccnc(N[C@@H]3CCCNC3)n2)c1
7.85

Mitogen-activated protein kinase 10 (Homo sapiens) / pIC50 / Cc1ccc2c(NS(=O)(=O)c3ccccc3Cl)cccc2c1Oc1ncccc1-c1ccnc(N[C@H]2CCCNC2)n1 : value?
5.60

Provide value of pIC50 for this record tested with Mitogen-activated protein kinase 10 (Homo sapiens): Cc1ccc2c(NS(=O)(=O)c3ccccc3Cl)cccc2c1Oc1ncccc1-c1ccnc(N[C@H]2CC[C@H](N)CC2)n1
6.27
